Here, each record is paired with measured IC50 data.
Test system: AMO-1 cells
methodNotes: Antiproliferation assay (CellTiter-Glo, 72 h), AMO-1
Type: cell-based
conditionContext: Homo sapiens, AMO1, 72 h, IC50, median; AMO-1, 72 h; read-out: Antiproli AMO-1 [M] median
Form entry: value (M) — number only.

Examples with their reported IC50 follow.
What value of measured IC50 is listed for Cc1c2c(nn1C)CN(CC(F)(F)F)CCCCn1c(C(=O)O)c(CCCOc3cccc4cc(F)ccc34)c3ccc(Cl)c-2c31 (racemic) [Example 58] ?
1.7e-06

What value of measured IC50 is listed for CCc1c2c(nn1C)CN(C)CCCCn1c(C(=O)O)c(CCCOc3cccc4ccccc34)c3ccc(Cl)c-2c31 (racemic) [Example 22] ?
6.6e-07

What value of measured IC50 is listed for CCc1c2c(nn1C)CCCN(CCCCO)CCn1c(C(=O)O)c(CCCOc3cccc4cc(F)ccc34)c3ccc(Cl)c-2c31 (racemic) ?
5.1e-07

What value of measured IC50 is listed for Cc1c2c(nn1C)COCCCCn1c(C(=O)O)c(CCCOc3cccc4cc(F)ccc34)c3ccc(Cl)c-2c31 (racemic) [Example 14] ?
7.4e-07

What value of measured IC50 is listed for Cc1nn(C)c2c1-c1c(Cl)ccc3c(CCCOc4cccc5ccccc45)c(C(=O)O)n(c13)CCCCOC2 (racemic) [Example 2] ?
4.9e-06

Others:
What value of measured IC50 is listed for CCc1c2c(nn1C)CCCN(CCCCOC(C)=O)CCn1c(C(=O)O)c(CCCOc3cccc4cc(F)ccc34)c3ccc(Cl)c-2c31 (racemic) ?
1.3e-06

* * *

Test system: AMO-1 cells
methodNotes: Antiproliferation assay (CellTiter-Glo, 72 h), AMO-1
Type: cell-based
conditionContext: Homo sapiens, AMO1, 72 h, IC50, median; AMO-1, 72 h; read-out: Antiproli AMO-1 [M] median
metricName: IC50 (M)
Form entry: value (M) — number only.

Examples with their reported IC50 follow.
Param readout = IC50; param system = AMO-1 cells; param query = CCc1c2c(nn1C)CCCOCCn1c(C(=O)O)c(CCCOc3cccc4cc(F)ccc34)c3ccc(Cl)c-2c31 (racemic) ; response: value
8.3e-07

Param readout = IC50; param system = AMO-1 cells; param query = Cc1c2c(nn1CCCN1CCN(C)CC1)COCCCCn1c(C(=O)O)c(CCCOc3cccc4ccccc34)c3ccc(Cl)c-2c31 (racemic) [Example 48] ; response: value
1.8e-07

Param readout = IC50; param system = AMO-1 cells; param query = Cc1c2c(nn1C)CN(C)CCCCn1c(C(=O)O)c(CCCOc3cccc4ccccc34)c3ccc(Cl)c-2c31 (racemic) ; response: value
7.3e-07

Param readout = IC50; param system = AMO-1 cells; param query = Cc1c2c(nn1C)COCCC(F)(F)Cn1c(C(=O)O)c(CCCOc3cccc4ccccc34)c3ccc(Cl)c-2c31 (racemic) [Example 68] ; response: value
2.6e-06

Param readout = IC50; param system = AMO-1 cells; param query = CCc1c2c(nn1C)CN(C)CCC(F)(F)Cn1c(C(=O)O)c(CCCOc3cccc4cc(F)ccc34)c3ccc(Cl)c-2c31 (racemic) ; response: value
8.3e-07

Others:
Param readout = IC50; param system = AMO-1 cells; param query = CCc1c2c(nn1C)CN(C)CC(F)(F)CCn1c(C(=O)O)c(CCCOc3cccc4cc(F)ccc34)c3ccc(Cl)c-2c31 (racemic) ; response: value
3.7e-07

Param readout = IC50; param system = AMO-1 cells; param query = CCc1c2c(nn1C)COCCCCn1c(C(=O)O)c(CCCOc3cccc4cc(F)ccc34)c3ccc(Cl)c-2c31 (single isomer, unassigned; enantiomer 1) [Example 37] ; response: value
3.6e-07

Param readout = IC50; param system = AMO-1 cells; param query = CCc1c2c(nn1C)CCCN(CC(F)(F)C(F)F)CCn1c(C(=O)O)c(CCCOc3cccc4cc(F)ccc34)c3ccc(Cl)c-2c31 (racemic) ; response: value
7.7e-07

These data points were gathered from patent US11478451B1.
